- assay_notes: Solubility in water
- Format: physicochemical
- conditions: Table 5, sarcosine substitution peptides
Square brackets hold non-standard residues; d marks the D form. Peptide text beside a SMILES is read from it. Sar = CNCC(=O)O
property: Solubility in water

molecule=CC[C@H](C)[C@H](N)C(=O)N[C@@H](C)C(=O)N[C@@H](CC(C)C)C(=O)N[C@H](C(=O)N[C@@H](CC(C)C)C(=O)N[C@@H](CCC(=O)O)C(=O)N1CCC[C@H]1C(=O)N[C@H](C(=O)N[C@@H](CS)C(=O)N[C@@H](CS)C(=O)N[C@@H](CCC(N)=O)C(=O)N[C@@H](CCC(=O)O)C(=O)N[C@@H](CCCNC(=N)N)C(=O)N(C)CC(=O)N[C@@H](C)C(=O)O)[C@@H](C)CC)[C@@H](C)CC observed_measurement=No
molecule=CC[C@H](C)[C@H](N)C(=O)N[C@@H](C)C(=O)N[C@@H](CC(C)C)C(=O)N[C@H](C(=O)N[C@@H](CC(C)C)C(=O)N[C@@H](CCC(=O)O)C(=O)N1CCC[C@H]1C(=O)N[C@H](C(=O)N[C@@H](CS)C(=O)N[C@@H](CS)C(=O)N[C@@H](CCC(N)=O)C(=O)N[C@@H](CCC(=O)O)C(=O)N[C@@H](CCCNC(=N)N)C(=O)N[C@@H](C)C(=O)N[C@@H](C)C(=O)O)[C@@H](C)CC)[C@@H](C)CC observed_measurement=No
molecule="CC[C@H](C)[C@H](N)C(=O)N[C@@H](C)C(=O)N[C@@H](CC(C)C)C(=O)N[C@H](C(=O)N(C)CC(=O)N[C@@H](CCC(=O)O)C(=O)N1CCC[C@H]1C(=O)N[C@H](C(=O)N[C@@H](CS)C(=O)N[C@@H](CS)C(=O)N[C@@H](CCC(N)=O)C(=O)N[C@@H](CCC(=O)O)C(=O)N[C@@H](CCCNC(=N)N)C(=O)N[C@@H](C)C(=O)N[C@@H](C)C(=O)O)[C@@H](C)CC)[C@@H](C)CC [PA-L5Sar] (H-IALI[Sar]EPICCQERAA-OH; N-terminus and C-terminus assumed)" observed_measurement=Yes
molecule="CC[C@H](C)[C@H](N)C(=O)N[C@@H](C)C(=O)N[C@@H](CC(C)C)C(=O)N[C@H](C(=O)N[C@@H](CC(C)C)C(=O)N[C@@H](CCC(=O)O)C(=O)N(C)CC(=O)N[C@H](C(=O)N[C@@H](CS)C(=O)N[C@@H](CS)C(=O)N[C@@H](CCC(N)=O)C(=O)N[C@@H](CCC(=O)O)C(=O)N[C@@H](CCCNC(=N)N)C(=O)N[C@@H](C)C(=O)N[C@@H](C)C(=O)O)[C@@H](C)CC)[C@@H](C)CC [PA-P7Sar] (H-IALILE[Sar]ICCQERAA-OH; N-terminus and C-terminus assumed)" observed_measurement=Yes
molecule=CC[C@H](C)[C@H](N)C(=O)N[C@@H](C)C(=O)N[C@@H](CC(C)C)C(=O)N[C@H](C(=O)N[C@@H](CC(C)C)C(=O)N[C@@H](CCC(=O)O)C(=O)N1CCC[C@H]1C(=O)N[C@H](C(=O)N[C@@H](CS)C(=O)N[C@@H](CS)C(=O)N[C@@H](CCC(N)=O)C(=O)N[C@@H](CCC(=O)O)C(=O)N[C@@H](CCCNC(=N)N)C(=O)N[C@@H](C)C(=O)N(C)CC(=O)O)[C@@H](C)CC)[C@@H](C)CC observed_measurement=No

* * *

- assay_notes: Solubility in water
- Type: physicochemical
- conditions: Table 5, sarcosine substitution peptides
property: Solubility in water

molecule=CC[C@H](C)[C@H](N)C(=O)N[C@@H](C)C(=O)N[C@@H](CC(C)C)C(=O)N[C@H](C(=O)N[C@@H](CC(C)C)C(=O)N[C@@H](CCC(=O)O)C(=O)N1CCC[C@H]1C(=O)N[C@H](C(=O)N[C@@H](CS)C(=O)N(C)CC(=O)N[C@@H](CCC(N)=O)C(=O)N[C@@H](CCC(=O)O)C(=O)N[C@@H](CCCNC(=N)N)C(=O)N[C@@H](C)C(=O)N[C@@H](C)C(=O)O)[C@@H](C)CC)[C@@H](C)CC observed_measurement=No
molecule="CC[C@H](C)[C@H](N)C(=O)N[C@@H](C)C(=O)N[C@@H](CC(C)C)C(=O)N[C@H](C(=O)N[C@@H](CC(C)C)C(=O)N[C@@H](CCC(=O)O)C(=O)N1CCC[C@H]1C(=O)N(C)CC(=O)N[C@@H](CS)C(=O)N[C@@H](CS)C(=O)N[C@@H](CCC(N)=O)C(=O)N[C@@H](CCC(=O)O)C(=O)N[C@@H](CCCNC(=N)N)C(=O)N[C@@H](C)C(=O)N[C@@H](C)C(=O)O)[C@@H](C)CC [PA-I8Sar, IALILEP(Sar)CCQERAA]" observed_measurement=Yes

* * *

- assay_notes: Solubility in water
- Format: physicochemical
- conditions: Table 6, PEGylated PA peptides
property: Solubility in water

structure_as_smiles=CC[C@H](C)[C@H](N)C(=O)N[C@@H](C)C(=O)N[C@@H](CC(C)C)C(=O)N[C@H](C(=O)N[C@@H](CC(C)C)C(=O)N[C@@H](CCC(=O)O)C(=O)N1CCC[C@H]1C(=O)N[C@H](C(=O)N[C@@H](CS)C(=O)N[C@@H](CS)C(=O)N[C@@H](CCC(N)=O)C(=O)N[C@@H](CCC(=O)O)C(=O)N[C@@H](CCCNC(=N)N)C(=O)N[C@@H](C)C(=O)N[C@@H](C)C(=O)NCCOCCOCCOCCOCCOCCOCCOCCOCCOCCOCCOCCOCCC(=O)O)[C@@H](C)CC)[C@@H](C)CC property="Solubility in water" observed_measurement=Yes
structure_as_smiles=CC[C@H](C)[C@H](N)C(=O)N[C@@H](C)C(=O)N[C@@H](CC(C)C)C(=O)N[C@H](C(=O)N[C@@H](CC(C)C)C(=O)N[C@@H](CCC(=O)O)C(=O)N1CCC[C@H]1C(=O)N[C@H](C(=O)N[C@@H](CS)C(=O)N[C@@H](CS)C(=O)N[C@@H](CCC(N)=O)C(=O)N[C@@H](CCC(=O)O)C(=O)N[C@@H](CCCNC(=N)N)C(=O)N[C@@H](C)C(=O)N[C@@H](C)C(=O)NCCOCCOCCOCCOCCOCCOCCOCCOCCOCCOCCOCCOCCOCCOCCOCCOCCC(=O)O)[C@@H](C)CC)[C@@H](C)CC property="Solubility in water" observed_measurement=Yes
structure_as_smiles=CC[C@H](C)[C@H](N)C(=O)N[C@@H](C)C(=O)N[C@@H](CC(C)C)C(=O)N[C@H](C(=O)N[C@@H](CC(C)C)C(=O)N[C@@H](CCC(=O)O)C(=O)N1CCC[C@H]1C(=O)N[C@H](C(=O)N[C@@H](CS)C(=O)N[C@@H](CS)C(=O)N[C@@H](CCC(N)=O)C(=O)N[C@@H](CCC(=O)O)C(=O)N[C@@H](CCCNC(=N)N)C(=O)N[C@@H](C)C(=O)N[C@@H](C)C(=O)NCCOCCOCCOCCOCCOCCOCCC(=O)O)[C@@H](C)CC)[C@@H](C)CC property="Solubility in water" observed_measurement=No
structure_as_smiles=CC[C@H](C)[C@H](N)C(=O)N[C@@H](C)C(=O)N[C@@H](CC(C)C)C(=O)N[C@H](C(=O)N[C@@H](CC(C)C)C(=O)N[C@@H](CCC(=O)O)C(=O)N1CCC[C@H]1C(=O)N[C@H](C(=O)N[C@@H](CS)C(=O)N[C@@H](CS)C(=O)N[C@@H](CCC(N)=O)C(=O)N[C@@H](CCC(=O)O)C(=O)N[C@@H](CCCNC(=N)N)C(=O)N[C@@H](C)C(=O)N[C@@H](C)C(=O)NCCOCCOCCOCCOCCOCCOCCOCCOCCOCCOCCOCCOCCOCCOCCOCCOCCOCCOCCOCCOCCC(=O)O)[C@@H](C)CC)[C@@H](C)CC property="Solubility in water" observed_measurement=Yes

* * *

- assay_notes: Solubility in water
- Type: physicochemical
- conditions: Table 5, sarcosine substitution peptides
Square brackets hold non-standard residues; d marks the D form. Peptide text beside a SMILES is read from it. Sar = CNCC(=O)O
property: Solubility in water

compound=CC[C@H](C)[C@H](N)C(=O)N[C@@H](C)C(=O)N[C@@H](CC(C)C)C(=O)N[C@H](C(=O)N[C@@H](CC(C)C)C(=O)N[C@@H](CCC(=O)O)C(=O)N1CCC[C@H]1C(=O)N[C@H](C(=O)N[C@@H](CS)C(=O)N[C@@H](CS)C(=O)N[C@@H](CCC(N)=O)C(=O)N[C@@H](CCC(=O)O)C(=O)N(C)CC(=O)N[C@@H](C)C(=O)N[C@@H](C)C(=O)O)[C@@H](C)CC)[C@@H](C)CC observed_measurement=No
compound="CC[C@H](C)[C@H](N)C(=O)N[C@@H](C)C(=O)N[C@@H](CC(C)C)C(=O)N[C@H](C(=O)N[C@@H](CC(C)C)C(=O)N[C@@H](CCC(=O)O)C(=O)N1CCC[C@H]1C(=O)N[C@H](C(=O)N(C)CC(=O)N[C@@H](CS)C(=O)N[C@@H](CCC(N)=O)C(=O)N[C@@H](CCC(=O)O)C(=O)N[C@@H](CCCNC(=N)N)C(=O)N[C@@H](C)C(=O)N[C@@H](C)C(=O)O)[C@@H](C)CC)[C@@H](C)CC [PA-C9Sar] (H-IALILEPI[Sar]CQERAA-OH; N-terminus and C-terminus assumed)" observed_measurement=Yes
compound="CC[C@H](C)[C@H](N)C(=O)N[C@@H](C)C(=O)N[C@@H](CC(C)C)C(=O)N(C)CC(=O)N[C@@H](CC(C)C)C(=O)N[C@@H](CCC(=O)O)C(=O)N1CCC[C@H]1C(=O)N[C@H](C(=O)N[C@@H](CS)C(=O)N[C@@H](CS)C(=O)N[C@@H](CCC(N)=O)C(=O)N[C@@H](CCC(=O)O)C(=O)N[C@@H](CCCNC(=N)N)C(=O)N[C@@H](C)C(=O)N[C@@H](C)C(=O)O)[C@@H](C)CC [PA-I4Sar] (H-IAL[Sar]LEPICCQERAA-OH; N-terminus and C-terminus assumed)" observed_measurement=Yes
compound="CC[C@H](C)[C@H](N)C(=O)N(C)CC(=O)N[C@@H](CC(C)C)C(=O)N[C@H](C(=O)N[C@@H](CC(C)C)C(=O)N[C@@H](CCC(=O)O)C(=O)N1CCC[C@H]1C(=O)N[C@H](C(=O)N[C@@H](CS)C(=O)N[C@@H](CS)C(=O)N[C@@H](CCC(N)=O)C(=O)N[C@@H](CCC(=O)O)C(=O)N[C@@H](CCCNC(=N)N)C(=O)N[C@@H](C)C(=O)N[C@@H](C)C(=O)O)[C@@H](C)CC)[C@@H](C)CC [PA-A2Sar] (H-I[Sar]LILEPICCQERAA-OH; N-terminus and C-terminus assumed)" observed_measurement=Yes
compound=CC[C@H](C)[C@H](NC(=O)[C@H](CC(C)C)NC(=O)[C@H](C)NC(=O)CNC)C(=O)N[C@@H](CC(C)C)C(=O)N[C@@H](CCC(=O)O)C(=O)N1CCC[C@H]1C(=O)N[C@H](C(=O)N[C@@H](CS)C(=O)N[C@@H](CS)C(=O)N[C@@H](CCC(N)=O)C(=O)N[C@@H](CCC(=O)O)C(=O)N[C@@H](CCCNC(=N)N)C(=O)N[C@@H](C)C(=O)N[C@@H](C)C(=O)O)[C@@H](C)CC observed_measurement=No
